All figures here come from paper PMC9024977.

Record set of IC50 for target or system Tdp1 (Homo sapiens, UniProt Q9NUW8).
Respond numerically; units are µM and should not be typed.

Guide cases for IC50, answers given:
- query-smiles: "C[C@H](OC(=O)c1ccccc1)[C@H]1O[C@@H](n2c(=O)cc[nH]c2=O)[C@H](OC(=O)c2ccccc2)[C@@H]1OC(=O)c1ccccc1"
  measured-value: 2.7
- query-smiles: "C[C@@H](OC(=O)c1ccccc1)[C@H]1O[C@@H](n2c(=O)cc[nH]c2=O)[C@H](OC(=O)c2ccccc2)[C@@H]1OC(=O)c1ccccc1"
  measured-value: 3.1
- query-smiles: "CO[C@@H]1O[C@@H](COC(=O)c2ccccc2)[C@H](OC(=O)c2ccccc2)[C@H]1OC(=O)c1ccccc1"
  measured-value: 6.7
- query-smiles: "C[C@H](OC(=O)c1ccccc1)[C@H]1O[C@@H](n2ccc(N)nc2=O)[C@H](OC(=O)c2ccccc2)[C@@H]1OC(=O)c1ccccc1"
  measured-value: 5.2
- query-smiles: "O=C(OC[C@H]1O[C@@H](n2ccc(=O)[nH]c2=O)[C@H](OC(=O)c2ccccc2)[C@@H]1OC(=O)c1ccccc1)c1ccccc1"
  measured-value: 3.8
- query-smiles: "O=C(OC[C@@H]1O[C@H](n2ccc(=O)[nH]c2=O)[C@@H](OC(=O)c2ccccc2)[C@H]1OC(=O)c1ccccc1)c1ccccc1"
  measured-value: 5.1
- query-smiles: "C[C@@H](OC(=O)c1ccccc1)[C@H]1O[C@@H](n2cnc3c(NC(=O)c4ccccc4)ncnc32)[C@H](OC(=O)c2ccccc2)[C@@H]1OC(=O)c1ccccc1"
  measured-value: 4.4
- query-smiles: "CO[C@H]1O[C@H](COC(=O)c2ccccc2)[C@@H](OC(=O)c2ccccc2)[C@@H]1OC(=O)c1ccccc1"
  measured-value: 2.3

# input Field request: IC50 | item: Cc1cn([C@H]2O[C@@H](COC(=O)c3ccccc3)[C@H](OC(=O)c3ccccc3)[C@@H]2OC(=O)c2ccccc2)c(=O)[nH]c1=O
# output 25

* * *

Attribute: ER (eudismic ratio)
# target-under-test: UniProt Q9NUW8
# test-summary: Real-time detection of Tdp1 activity (oligonucleotide biosensor, FAM/BHQ1)
# Assay type: biochemical
# condition-info: IC50 (Eutomer)/IC50 (Distomer), per stereoisomer pair
Simply state the number, no unit and no words.

Guide cases for ER (eudismic ratio), answers given:
- query-smiles: "C[C@@H](OC(=O)c1ccccc1)[C@H]1O[C@@H](n2c(=O)cc[nH]c2=O)[C@H](OC(=O)c2ccccc2)[C@@H]1OC(=O)c1ccccc1"
  ER (eudismic ratio): 0.871
- query-smiles: "C[C@@H](OC(=O)c1ccccc1)[C@H]1O[C@@H](n2ccc(N)nc2=O)[C@H](OC(=O)c2ccccc2)[C@@H]1OC(=O)c1ccccc1"
  ER (eudismic ratio): 0.896

Attention now turns to another entry.
# input Field request: ER (eudismic ratio) | item: Cc1cn([C@@H]2O[C@H](COC(=O)c3ccccc3)[C@@H](OC(=O)c3ccccc3)[C@H]2OC(=O)c2ccccc2)c(=O)[nH]c1=O
# output 0.108

* * *

Attribute: ER (eudismic ratio)
# target-under-test: Tdp1 (Homo sapiens)
# Sequence (Q9NUW8 whole entry): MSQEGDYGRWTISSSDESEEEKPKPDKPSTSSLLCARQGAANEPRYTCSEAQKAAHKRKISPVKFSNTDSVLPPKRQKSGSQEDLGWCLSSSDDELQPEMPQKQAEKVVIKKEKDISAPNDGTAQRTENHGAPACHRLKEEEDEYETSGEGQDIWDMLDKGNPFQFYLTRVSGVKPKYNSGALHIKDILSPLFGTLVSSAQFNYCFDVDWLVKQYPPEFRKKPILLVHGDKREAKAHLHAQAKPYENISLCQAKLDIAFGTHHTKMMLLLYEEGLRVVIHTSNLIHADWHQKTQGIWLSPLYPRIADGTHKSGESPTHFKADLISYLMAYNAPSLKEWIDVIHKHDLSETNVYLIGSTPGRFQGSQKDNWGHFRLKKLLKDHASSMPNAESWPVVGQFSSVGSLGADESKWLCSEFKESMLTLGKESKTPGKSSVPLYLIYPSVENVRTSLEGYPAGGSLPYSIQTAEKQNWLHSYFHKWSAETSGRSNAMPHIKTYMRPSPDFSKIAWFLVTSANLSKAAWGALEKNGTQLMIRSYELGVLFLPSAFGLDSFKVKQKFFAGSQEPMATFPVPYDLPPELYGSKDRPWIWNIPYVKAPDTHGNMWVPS
# test-summary: Real-time detection of Tdp1 activity (oligonucleotide biosensor, FAM/BHQ1)
# Assay type: biochemical
# condition-info: IC50 (Eutomer)/IC50 (Distomer), per stereoisomer pair
Simply state the number, no unit and no words.

Guide cases for ER (eudismic ratio), answers given:
- query-smiles: "O=C(OC[C@H]1O[C@@H](n2ccc(=O)[nH]c2=O)[C@H](OC(=O)c2ccccc2)[C@@H]1OC(=O)c1ccccc1)c1ccccc1"
  target-under-test: "Tdp1 (Homo sapiens)"
  ER (eudismic ratio): 0.745
- query-smiles: "CC(=O)O[C@@H]1O[C@H](COC(=O)c2ccccc2)[C@@H](OC(=O)c2ccccc2)[C@H]1OC(=O)c1ccccc1"
  target-under-test: "Tdp1 (Homo sapiens)"
  ER (eudismic ratio): 0.808

Attention now turns to another entry.
# input Field request: ER (eudismic ratio) | item: Cc1cn([C@H]2O[C@@H](COC(=O)c3ccccc3)[C@H](OC(=O)c3ccccc3)[C@@H]2OC(=O)c2ccccc2)c(=O)[nH]c1=O
# output 0.108

* * *

# target-under-test: Tdp1 (Homo sapiens)
# test-summary: Real-time detection of Tdp1 activity (oligonucleotide biosensor, FAM/BHQ1)
# Format: biochemical
# condition-info: IC50 (Eutomer)/IC50 (Distomer), per stereoisomer pair
measure: ER (eudismic ratio)
Simply state the number, no unit and no words.

# input Field request: ER (eudismic ratio) | item: C[C@H](OC(=O)c1ccccc1)[C@H]1O[C@@H](n2cnc3c(NC(=O)c4ccccc4)ncnc32)[C@H](OC(=O)c2ccccc2)[C@@H]1OC(=O)c1ccccc1
# output 0.956

# input Field request: ER (eudismic ratio) | item: C[C@H](OC(=O)c1ccccc1)[C@H]1O[C@@H](n2ccc(N)nc2=O)[C@H](OC(=O)c2ccccc2)[C@@H]1OC(=O)c1ccccc1
# output 0.896

# input Field request: ER (eudismic ratio) | item: O=C(OC[C@@H]1O[C@H](n2ccc(=O)[nH]c2=O)[C@@H](OC(=O)c2ccccc2)[C@H]1OC(=O)c1ccccc1)c1ccccc1
# output 0.745
